# Tested on: Endogenous Huntingtin Protein
# EXPERIMENT_DESCRIPTION: Endogenous Huntingtin Protein Assay (Meso Scale Discovery ELISA-based electrochemiluminescence)
# Type: cell-based
# COND: MSD plates coated with MW1 (expanded polyglutamine) or MAB2166 capture antibody; lysates
Measured IC50 of individual entries

Consider the reported IC50 for these compounds:
INSERT INTO results (entry_smiles, property_measured, result) VALUES
  ('CC1(C)CC(n2nnc3cc(-c4ccc(-c5ccn6nncc6c5)cc4O)nnc32)CC(C)(C)N1', 'IC50', '0.1 to 0.5 µM'),
  ('CC1(C)CC(n2nnc3cc(-c4ccc(-c5ccsc5)cc4O)nnc32)CC(C)(C)N1', 'IC50', '0.1 to 0.5 µM'),
  ('Cn1cc(-c2ccc(-c3cc4nnn(C5CC(C)(C)NC(C)(C)C5)c4nn3)c(O)c2)c(F)n1', 'IC50', '≤ 0.1 µM'),
  ('Cc1nc2cc(-c3cc4nnn(C5CC(C)(C)NC(C)(C)C5)c4nn3)c(O)cc2[nH]1', 'IC50', '≤ 0.1 µM'),
  ('CC1(C)CC(n2nnc3cc(-c4cc(F)c(-c5ccncc5)cc4O)nnc32)CC(C)(C)N1', 'IC50', '0.1 to 0.5 µM'),
  ('Cc1n[nH]cc1-c1ccc(-c2cc3nnn(C4CC(C)(C)NC(C)(C)C4)c3nn2)c(O)c1', 'IC50', '≤ 0.1 µM'),
  ('[2H]C([2H])([2H])n1cc(-c2ccc(-c3cc4nnn(C5CC(C)(C)NC(C)(C)C5)c4nn3)c(O)c2)cn1', 'IC50', '≤ 0.1 µM');

Continue with the compound presented below.
q: Fill in reported IC50 for this entry: "CC1(C)CC(n2nnc3cc(-c4ccc(-c5ccncc5F)cc4O)nnc32)CC(C)(C)N1"
a: 0.5 to 1 µM

====

# Test system: Endogenous Huntingtin Protein
# EXPERIMENT_DESCRIPTION: Endogenous Huntingtin Protein Assay (Meso Scale Discovery ELISA-based electrochemiluminescence)
# Format: cell-based
# COND: MSD plates coated with MW1 (expanded polyglutamine) or MAB2166 capture antibody; lysates
PROPERTY_MEASURED: IC50

Consider the reported IC50 for these compounds:
INSERT INTO measurements (entry_smiles, system_name, property_measured, result) VALUES
  ('CC1(C)CC(n2nnc3cc(-c4ccc(-c5cn[nH]c5)c(F)c4F)nnc32)CC(C)(C)N1', 'Endogenous Huntingtin Protein', 'IC50', '100 to 500 nM'),
  ('Cn1ncc(-c2ccc(-c3cc4nnn(C5CC(C)(C)NC(C)(C)C5)c4nn3)c(O)c2)c1F', 'Endogenous Huntingtin Protein', 'IC50', '≤ 100 nM'),
  ('CC1(C)CC(n2ncc3cc(-c4ccc(-c5cccnc5)cc4O)nnc32)CC(C)(C)N1', 'Endogenous Huntingtin Protein', 'IC50', '100 to 500 nM'),
  ('CN(C)c1ccc(-c2ccc(-c3cc4nnn(C5CC(C)(C)NC(C)(C)C5)c4nn3)c(O)c2)cn1', 'Endogenous Huntingtin Protein', 'IC50', '1000 to 3000 nM'),
  ('Oc1cc(-c2cn[nH]c2)ccc1-c1cc2[nH]cc(C3=CCNCC3)c2nn1', 'Endogenous Huntingtin Protein', 'IC50', '1000 to 3000 nM');

q: Recall the reported IC50 of "Cc1ccn(-c2ccc(-c3cc4nnn(C5CC(C)(C)NC(C)(C)C5)c4nn3)c(O)c2)n1" when tested on Endogenous Huntingtin Protein.
a: 100 to 500 nM

q: Recall the reported IC50 of "Cc1nsc(-c2ccc(-c3cc4nnn(C5CC(C)(C)NC(C)(C)C5)c4nn3)c(O)c2)n1" when tested on Endogenous Huntingtin Protein.
a: ≤ 100 nM

q: Recall the reported IC50 of "Cn1cc(-c2ccc(-c3cc4nnn(C5CC(C)(C)NC(C)(C)C5)c4nn3)c(O)c2)nn1" when tested on Endogenous Huntingtin Protein.
a: 100 to 500 nM

====

# System: Endogenous Huntingtin Protein
# EXPERIMENT_DESCRIPTION: Endogenous Huntingtin Protein Assay (Meso Scale Discovery ELISA-based electrochemiluminescence)
# Type: cell-based
# COND: MSD plates coated with MW1 (expanded polyglutamine) or MAB2166 capture antibody; lysates
Measured IC50 of individual entries

Consider the reported IC50 for these molecules:
INSERT INTO results (molecule, result) VALUES
  ('CC1(C)CC(n2nnc3cc(-c4ccc(-c5ncns5)cc4O)nnc32)CC(C)(C)N1', '≤ 100 nM'),
  ('CC1(C)CC(n2nnc3cc(-c4c(O)cc(-c5cn[nH]c5)cc4F)nnc32)CC(C)(C)N1', '≤ 100 nM'),
  ('CC1(C)CC(n2nnc3cc(-c4ccc(-c5cc6nn[nH]c6cn5)cc4O)nnc32)CC(C)(C)N1', '1000 to 3000 nM'),
  ('Oc1cc(-c2cn[nH]c2)ccc1-c1cc2scc(C3=CCNCC3)c2nn1', '1000 to 3000 nM'),
  ('CC(C)(C)NC1CC(n2nnc3cc(-c4ccc(-c5cn[nH]c5)cc4O)nnc32)C1 (centres unmarked)', '1000 to 3000 nM');

Continue with the molecule presented below.
q: Fill in reported IC50 for this entry: "CC1(C)CC(n2nnc3cc(-c4ccc(-c5c[nH]nc5C(F)(F)F)cc4O)nnc32)CC(C)(C)N1"
a: 100 to 500 nM

====

# Test system: Endogenous Huntingtin Protein
# EXPERIMENT_DESCRIPTION: Endogenous Huntingtin Protein Assay (Meso Scale Discovery ELISA-based electrochemiluminescence)
# Type: cell-based
# COND: MSD plates coated with MW1 (expanded polyglutamine) or MAB2166 capture antibody; lysates
Measured IC50 of individual entries

Consider the reported IC50 for these compounds:
INSERT INTO assay_data (compound, system_name, result) VALUES
  ('Cc1cn(-c2ccc(-c3cc4nnn(C5CC(C)(C)NC(C)(C)C5)c4nn3)c(O)c2)c(C)n1', 'Endogenous Huntingtin Protein', '1000 to 3000 nM'),
  ('Cn1ccc(-c2ccc(-c3cc4nnn(C5CC(C)(C)NC(C)(C)C5)c4nn3)c(O)c2)n1', 'Endogenous Huntingtin Protein', '100 to 500 nM'),
  ('CC1(C)CC(n2nnc3cc(-c4ccc(-n5cnc(F)c5)cc4O)nnc32)CC(C)(C)N1', 'Endogenous Huntingtin Protein', '≤ 100 nM'),
  ('COc1nc2cc(-c3ccc(-c4cn[nH]c4)cc3O)nnc2n1C1CC(C)(C)NC(C)(C)C1', 'Endogenous Huntingtin Protein', '3000 to 9000 nM'),
  ('CC1(C)CC(n2cnc3cc(-c4ncc(-c5cn[nH]c5)cc4O)nnc32)CC(C)(C)N1', 'Endogenous Huntingtin Protein', '≤ 100 nM'),
  ('CC1(C)CC(n2ccc3cc(-c4ccc(-n5nccn5)cc4O)nnc32)CC(C)(C)N1', 'Endogenous Huntingtin Protein', '≤ 100 nM');

q: Fill in reported IC50 for this entry: "CC1(C)C=C(c2c[nH]c3cc(-c4ccc(-c5cn[nH]c5)cc4O)nnc23)CC(C)(C)N1"
a: ≤ 100 nM

q: Fill in reported IC50 for this entry: "CC1(C)CC(n2nnc3cc(-c4ccc(-c5ccnc(C(F)(F)F)c5)cc4O)nnc32)CC(C)(C)N1"
a: 100 to 500 nM

q: Fill in reported IC50 for this entry: "CC1(C)CC(n2nnc3cc(-c4ccc(-c5nccs5)cc4O)nnc32)CC(C)(C)N1"
a: ≤ 100 nM

q: Fill in reported IC50 for this entry: "CC1(C)CC(n2nnc3cc(-c4ccc(-c5cnoc5)cc4O)nnc32)CC(C)(C)N1"
a: 100 to 500 nM

q: Fill in reported IC50 for this entry: "Cn1ccc(-c2ccc(-c3cc4nnn([C@H]5CC(C)(C)NC(C)(C)[C@H]5F)c4nn3)c(O)c2)cc1=O"
a: 100 to 500 nM

q: Fill in reported IC50 for this entry: "CC1(C)CC(n2ncc3cc(-c4ccc(-c5c[nH]nc5F)cc4O)nnc32)CC(C)(C)N1"
a: ≤ 100 nM

q: Fill in reported IC50 for this entry: Oc1cc(-c2cn[nH]c2)ccc1-c1cc2[nH]cc(C3=CC4COCC(C3)N4)c2nn1 (stereo not drawn)
a: 1000 to 3000 nM

q: Fill in reported IC50 for this entry: "CC1(C)CC(n2nnc3cc(-c4ccc(-c5ccn6cncc6c5)cc4O)nnc32)CC(C)(C)N1"
a: 100 to 500 nM

q: Fill in reported IC50 for this entry: Oc1cc(-c2cn[nH]c2)ccc1-c1cc2[nH]cc(C3=CC4CCC(C3)N4)c2nn1 (stereo not drawn)
a: ≤ 100 nM

q: Fill in reported IC50 for this entry: "CC1(C)CC(n2nnc3cc(-c4cc(O)c(-c5cn[nH]c5)cc4F)nnc32)CC(C)(C)N1"
a: 500 to 1000 nM

q: Fill in reported IC50 for this entry: "CNc1nc2cc(-c3ccc(-c4cn[nH]c4)cc3O)nnc2n1C1CC(C)(C)NC(C)(C)C1"
a: 100 to 500 nM

q: Fill in reported IC50 for this entry: "CC1(C)CC(n2ncc3cc(-c4ccc(-c5cncnc5)cc4O)nnc32)CC(C)(C)N1"
a: 1000 to 3000 nM

q: Fill in reported IC50 for this entry: "CC1(C)CC(n2nnc3cc(-c4ccc(-n5ccnc5)cc4O)nnc32)CC(C)(C)N1"
a: ≤ 100 nM

q: Fill in reported IC50 for this entry: "Cn1cc(-c2ccc(-c3cc4nnn(C5CC(C)(C)NC(C)(C)C5)c4nn3)c(O)c2)cn1"
a: ≤ 100 nM

q: Fill in reported IC50 for this entry: "CC1(C)C[C@@H](n2nnc3cc(-c4ccc(-c5cn[nH]c5)cc4O)nnc32)[C@H](F)C(C)(C)N1"
a: ≤ 100 nM

q: Fill in reported IC50 for this entry: "CC1(C)C=C(n2ccc3nc(-c4ccc(-c5cn[nH]c5)cc4O)cnc32)CC(C)(C)N1"
a: 1000 to 3000 nM

q: Fill in reported IC50 for this entry: "CC1(C)CC(n2ncc3cc(-c4ccc(-n5nccn5)cc4O)nnc32)CC(C)(C)N1"
a: ≤ 100 nM

q: Fill in reported IC50 for this entry: Oc1cc(-c2cn[nH]c2)ccc1-c1cc2scc(C3=CC4CCC(C3)N4)c2nn1 (stereo not drawn)
a: ≤ 100 nM
